methodNotes: Metabolic stability in human liver microsomes after 30 mins
Assay type: ADME, Microsome
experimentalSetup: read-out: Stability
Task for the reader: assign each of the following compounds its reported remaining at 0.5 h.
Answers are plain numbers, in %.

Sample records with remaining at 0.5 h:
COc1ccc(-c2nc3ccc(NCc4ccc(Cl)c(C(F)(F)F)c4)cc3n(CCNC(C)=O)c2=O)cc1 | 83
COc1ccc(-c2nc3ccc(NCc4ccc(Cl)c(Cl)c4)cc3n(CCNC(C)=O)c2=O)cc1 | 54
COc1ccc(-c2nc3cnc(NCc4ccc(Cl)c(Cl)c4)nc3n(CCNC(C)=O)c2=O)cc1 | 47
COc1ccc(-c2nc3ccc(NCc4ccc(Cl)c(Cl)c4)nc3n(CCC(N)=O)c2=O)cc1 | 106

Look up remaining at 0.5 h: COc1ccc(-c2nc3ccc(NCc4cccc(C(F)(F)F)c4)nc3n(CCC(N)=O)c2=O)cc1 61
